Each entry below carries its reported protein stability index.
B1: APBB1IP (parent)
chain: ADPVLDLPLPPPPPEPLSQVSMWD

- Variants of: B1
- test method notes: protein stability index of a GFP-peptide fusion (GPS, HEK-293T) (PSI 1-6); higher = more stable;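 also: lentivirally expressed fusions sorted by FACS into six bins by GFP to DsRed ratio, PSI derived from sequencing read proportions per bin multiplied by bin number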
- condition summary: c terminus: a fixed tail appended
Enter a number only.

Consider the worked cases shown below.
Lookup: If you can, please state the reported protein stability index value of P13E .
Found: 4.96

Lookup: Given the entry P11V , report its measured protein stability index.
Found: 4.43

Lookup: Return reported protein stability index; argument: P13V
Found: 3.84

Further cases:
Lookup: I would be grateful if you could share the reported protein stability index for P11E .
Found: 4.69

Lookup: Quick one: protein stability index of P13W ?
Found: 3.8

Lookup: Request the reported protein stability index associated with P13K
Found: 4.6

Lookup: Name the recorded protein stability index for P13R .
Found: 4.37

Lookup: Give its protein stability index value. Item: P11K
Found: 4.69

Every entry's value here was drawn from the supplement of paper PMC10567573.
